- procedure-text: Pharmacokinetic interaction study in rats, Study II: VOR with or without ATO
- Assay type: in vivo
- experimental-setup: male, Sprague-Dawley, rat, plasma, po, 20 mg/kg, NS + VOR 20 mg/kg oral

| smiles-notation | half-life [h] |
| --- | --- |
| C[C@@H](c1ncncc1F)[C@](O)(Cn1cncn1)c1ccc(F)cc1F | 2.58 |

====

- procedure-text: Pharmacokinetic interaction study in rats, Study II: VOR with or without ATO
- Type: in vivo
- experimental-setup: male, Sprague-Dawley, rat, plasma, po, 20 mg/kg, ATO 2 mg/kg + VOR 20 mg/kg oral
- Description: Considering the clinical dosage of each drug and the dose equivalence between rats and human subjects, the corresponding quantity of drug powder was taken and resuspended with normal saline to prepare the drug-containing administration solution before treatment. […] The analytes were quantified by selective reaction monitoring (SRM) that used heating electrospray ionization (H-ESI) in the positive ion mode. […]

| smiles-notation | AUC(0-inf) (ng·h/mL) |
| --- | --- |
| C[C@@H](c1ncncc1F)[C@](O)(Cn1cncn1)c1ccc(F)cc1F | 3280 |
